This collection of values is drawn from patent US11098040B2.

Experiment: Pharmacokinetic (PK) studies via intravenous infusion, Sprague-Dawley rat
Type: in vivo
Conditions: male, plasma, 1 hour-IV infusion 4 mg/kg, 2 hr, one rat
METRIC: concentration at 2 h (ng/mL)
One number for each entry, in ng/mL.

Record summary for COC(=O)[C@H]1Cc2c([nH]c3ccccc23)[C@H](c2ccc(S(=O)(=O)N[C@]34C[C@H]5C[C@H](C[C@H](C5)C3)C4)cc2)N1C(=O)CCl [Example 24] : reported concentration at 2 h = 2.62

====

Tested on: Panc 6.03
Test: Cell proliferation assay, pancreatic cancer cell line Panc 6.03
Assay type: cell-based
Procedure: Cell viability assay was performed to assess the potency of the compounds in human cancer cell lines 786-O (renal cell carcinoma) and SJSA-1 (osteosarcoma). […]
METRIC: log10 of IC50 (log10 of the value in nM)
Scale: log10; quantity: IC50; unit before log: nM

Recorded results for 4 compounds are shown here.
> print(dat)
                                        smi     target  assay.value
1  COc1ccc2[nH]c3c(c2c1)C[C@H](C)N(C(=O)CCl)[C@H]3c1ccc(N2CCOCC2)cc1  Panc 6.03         2.35
2  C[C@H]1Cc2c([nH]c3ccccc23)[C@H](c2ccc(N3CCC3)cc2)N1C(=O)CCl  Panc 6.03         2.22
3  CC[C@H]1Cc2c([nH]c3ccccc23)[C@H](c2ccc(N3CCOCC3)cc2)N1C(=O)CCl  Panc 6.03         1.52
4  CCCC[C@H]1Cc2c([nH]c3ccccc23)[C@H](c2ccc(N3CCOCC3)cc2)N1C(=O)CCl  Panc 6.03         1.23

Record summary for CCC[C@H]1Cc2c([nH]c3ccccc23)[C@H](c2ccc(N3CCOCC3)cc2)N1C(=O)CCl : reported log10 of IC50 = 1.19

====

Tested on: SJSA-1
Assay: Cell proliferation (Alamar Blue) assay, SJSA-1 osteosarcoma, with/without ferrostatin
Assay type: cell-based, human
Details: Homo sapiens, SJSA-1, Cell Line SJSA-1; read-out: IC50
Experimental: Cell viability assay was performed to assess the potency of the compounds in human cancer cell lines 786-O (renal cell carcinoma) and SJSA-1 (osteosarcoma). […] Cells (SJSA-1, 786-O and A431) were seeded (5000 cells/100 μL/well) in 96-well tissue culture plate and incubated at 37° C./5% CO2 for 16-24 hours. […] The plates were read on fluorescence reader at 540 nm excitation and 590 nm emission wavelengths. […]
METRIC: pIC50
Give bare numbers, as −log10 of the molar value.

> print(dat)
                                   compound  assay.value
1  C[C@H]1Cc2c([nH]c3ccccc23)[C@H](c2ccc(S(=O)(=O)N(C)C3CC3)cc2F)N1C(=O)CCl         7.21

Hey, quick one: what's pIC50 for each of these?
1. C[C@H]1Cc2c([nH]c3ccccc23)[C@H](c2ccc(F)cc2)N1C(=O)CCl
2. COC(=O)c1ccc([C@H]2c3[nH]c4ccc(OC)cc4c3C[C@H](C)N2C(=O)CCl)cc1
3. COCCOCCOCCOCCOC(=O)[C@H]1Cc2c([nH]c3ccccc23)[C@H](c2ccc(NC34CC5CC(CC(C5)C3)C4)cc2)N1C(=O)CCl
4. C#CC(=O)N1[C@@H](c2c(F)cccc2F)c2[nH]c3ccccc3c2C[C@@H]1C
5. C#CC(=O)N1[C@@H](CCCC)Cc2c([nH]c3ccc(F)cc23)[C@@H]1c1ccc(S(=O)(=O)NC2CCC2)cc1

Response:
[7.03, 6.85, 5.38, 6.72, 8.05]

Hey, quick one: what's pIC50 for each of these?
1. COc1ccc2[nH]c3c(c2c1)C[C@H](C)N(C(=O)CCl)[C@H]3c1ccc(F)cc1
2. C#CC(=O)N1[C@@H](c2c(F)cc(F)cc2F)c2[nH]c3ccccc3c2C[C@@H]1C
3. C#CC(=O)N1[C@@H](c2ccc(F)c(F)c2)c2[nH]c3ccccc3c2C[C@@H]1C

Response:
6.58
7.99
6.47

====

Experiment: Whole blood stability, human
Type: in vitro ADME
Details: 30 min
Exercise: state measured Whole Blood Stability % Remaining at 37° C. Human for each of the compounds provided.
Give bare numbers, in %.

Recorded results for 2 compounds are shown here.
> print(dat)
                                   compound  assay.value
1  COC(=O)[C@H]1Cc2c([nH]c3ccccc23)[C@H](c2ccc(C(=O)OC[C@]34C[C@H]5C[C@H](C[C@H](C5)C3)C4)cc2)N1C(=O)CCl [Compound 6]         54.8
2  COC(=O)[C@H]1Cc2c([nH]c3ccccc23)[C@H](c2ccc(C(=O)OCC3CC3)cc2)N1C(=O)CCl [Compound 75]         68.1

Record summary for COC(=O)c1ccc([C@@H]2c3[nH]c4ccc(F)cc4c3C[C@H](C(=O)OC)N2C(=O)CCl)cc1 [Compound 92] : reported Whole Blood Stability % Remaining at 37° C. Human = 40.2

====

Exercise: state measured Whole Blood Stability % Remaining at 37° C. Human for each of the molecules provided.
Experiment: Whole blood stability, human
Assay type: in vitro ADME
Conditions: 60 min
Answers are plain numbers, in %.

Hey, quick one: what's Whole Blood Stability % Remaining at 37° C. Human for each of these?
1. COC(=O)[C@H]1Cc2c([nH]c3ccccc23)[C@H](c2ccc(C(=O)NC(C)(C)C)cc2)N1C(=O)CCl [Compound 9]
2. COC(=O)c1ccc([C@@H]2c3c(c4ccccc4n3C)C[C@H](C(=O)OC)N2C(=O)CCl)cc1 [Compound 73]

Response:
1: 47.0; 2: 36.1

Hey, quick one: what's Whole Blood Stability % Remaining at 37° C. Human for each of these?
1. CN(C)C(=O)[C@H]1Cc2c([nH]c3ccccc23)[C@H](c2ccc(C(=O)N3CCC(O)CC3)cc2)N1C(=O)CCl [Compound 45]
2. CNC(=O)c1ccc([C@H]2c3[nH]c4ccccc4c3C[C@H](C(=O)OC)N2C(=O)CCl)cc1 [Compound 7]

Response:
56.4
44.5

====

Assay: in vivo
Conditions: male, Balb/c nude, mouse, ip, 15 mg/kg, Calculated Concentration, Mean
METRIC: concentration at 0.5 h (ng/mL)
Give bare numbers, in ng/mL.

> print(dat)
                                   molecule                  metric  unit.descriptor  assay.value
1  COC(=O)[C@H]1Cc2c([nH]c3ccccc23)[C@H](c2ccc(S(=O)(=O)N[C@]34C[C@H]5C[C@H](C[C@H](C5)C3)C4)cc2)N1C(=O)CCl [Example 24]  concentration at 0.5 h            ng/mL          464

Let's switch to this molecule now.
Record summary for COC(=O)[C@H]1Cc2c([nH]c3ccccc23)[C@H](c2ccc(C(=O)OC(C)(C)C)cc2)N1C(=O)CCl [Example 1] : reported concentration at 0.5 h = 126

====

System: SJSA-1
Test: Cell proliferation (Alamar Blue) assay, SJSA-1 osteosarcoma, with/without ferrostatin
Assay type: cell-based, human
Details: Homo sapiens, SJSA-1, Cell Line SJSA-1; read-out: IC50
The following ranges of IC50 define the classes used here: low-valued (below 90 nM), mid-valued (90 nM to below 300 nM), high-valued (300 nM or more)

> print(dat)
                                   compound  group.label
1  C#CCOc1ccc2[nH]c3c(c2c1)C[C@H](C(=O)OC)N(C(=O)CCl)[C@H]3c1ccc(C(=O)NC23CC4CC(CC(C4)C2)C3)cc1 [Example 211]   low-valued
2  CC#CC(=O)N1[C@@H](c2ccc(N3CCOCC3)cc2)c2[nH]c3ccccc3c2C[C@@H]1C [Compound 224]  high-valued
3  C[C@H]1Cc2c([nH]c3ccccc23)[C@H](c2ccc(S(=O)(=O)NC3CC3)cc2F)N1C(=O)CCl (single isomer, unassigned) [Compound 217]   low-valued
4  C#CC(=O)N1[C@@H](c2ccc(C3CCOCC3)cc2)c2[nH]c3ccccc3c2C[C@@H]1C [Compound 192]   mid-valued

Let us examine a further case.
Prompt: # bin label for C[C@H]1Cc2c([nH]c3ccccc23)[C@@H](c2ccc(N3CCOCC3)nc2)N1C(=O)CCl [Compound 157]
Response: high-valued

====

System: LNCaP
Assay: Cell proliferation assay, prostate cancer cell line LNCaP
Type: cell-based
Details: Homo sapiens
Procedure: Cell viability assay was performed to assess the potency of the compounds in human cancer cell lines 786-O (renal cell carcinoma) and SJSA-1 (osteosarcoma). […]
METRIC: IC50 (nM)
Give bare numbers, in nM.

Item CCCC[C@H]1Cc2c([nH]c3ccccc23)[C@H](c2ccc(N3CCOCC3)cc2)N1C(=O)CCl ; assay system LNCaP; IC50 reported as 574
